Target: UniProtKB P08659
Sequence (P08659 whole entry): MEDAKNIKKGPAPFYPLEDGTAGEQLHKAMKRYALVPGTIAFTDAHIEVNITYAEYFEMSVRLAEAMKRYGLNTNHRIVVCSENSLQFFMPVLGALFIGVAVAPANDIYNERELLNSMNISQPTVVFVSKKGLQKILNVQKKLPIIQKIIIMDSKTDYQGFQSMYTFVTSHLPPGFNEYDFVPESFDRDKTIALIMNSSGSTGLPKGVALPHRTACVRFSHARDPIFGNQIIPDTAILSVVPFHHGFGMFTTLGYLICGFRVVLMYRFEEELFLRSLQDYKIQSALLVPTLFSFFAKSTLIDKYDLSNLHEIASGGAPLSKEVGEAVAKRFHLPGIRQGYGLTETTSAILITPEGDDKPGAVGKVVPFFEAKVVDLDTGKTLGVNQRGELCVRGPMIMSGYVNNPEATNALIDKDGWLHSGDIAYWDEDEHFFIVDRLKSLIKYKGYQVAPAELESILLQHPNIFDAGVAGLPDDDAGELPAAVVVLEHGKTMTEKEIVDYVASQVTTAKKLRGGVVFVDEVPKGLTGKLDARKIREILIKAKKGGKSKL
Assay: biochemical
Assay type: biochemical
Metric Name: IC50
In your response, the unit should come after the numeric value.

As a guide, the following entries are already answered.
compound=O=C(NCCc1c[nH]c2ccccc12)c1cccnc1 value_reported="35.1 µM"
compound=COP(=S)(OC)Oc1ccc(SC)c(C)c1 value_reported="44.8 µM"
compound="CCC(=O)O[C@H]1[C@H](O[C@@H]2[C@@H](C)[C@H](O[C@H]3C[C@@](C)(OC)[C@@H](O)[C@H](C)O3)[C@@H](C)C(=O)O[C@H](CC)[C@@](C)(O)[C@H](O)[C@@H](C)C(=O)[C@H](C)C[C@@]2(C)O)O[C@H](C)C[C@@H]1N(C)C [Erythromycin estolate]" value_reported="55 µM"

Q: Need IC50, item "CC(C)Nc1ccc(Nc2ccccc2)cc1"
A: 34.2 µM

Q: Would you mind doing "COc1nn(CSP(=S)(OC)OC)c(=O)s1" as well?
A: 44 µM

----------
Measured CYP2C19 Efficacy (in parenthesis), listed per entry for reference.
Target: human CYP2C19 (Homo sapiens)
Sequence (P33261 whole entry): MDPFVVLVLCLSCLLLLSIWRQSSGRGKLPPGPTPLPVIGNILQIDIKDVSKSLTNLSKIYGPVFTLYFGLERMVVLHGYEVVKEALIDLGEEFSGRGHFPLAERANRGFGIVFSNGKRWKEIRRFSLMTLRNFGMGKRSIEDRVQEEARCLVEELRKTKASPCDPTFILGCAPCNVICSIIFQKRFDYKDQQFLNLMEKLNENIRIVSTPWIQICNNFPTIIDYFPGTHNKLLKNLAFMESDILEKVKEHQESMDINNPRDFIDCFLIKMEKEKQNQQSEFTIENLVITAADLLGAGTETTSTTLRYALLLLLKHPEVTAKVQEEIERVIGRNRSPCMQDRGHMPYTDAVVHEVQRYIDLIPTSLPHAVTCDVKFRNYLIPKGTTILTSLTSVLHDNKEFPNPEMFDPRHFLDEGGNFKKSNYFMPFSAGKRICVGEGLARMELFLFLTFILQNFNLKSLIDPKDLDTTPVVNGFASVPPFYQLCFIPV
Settings: human

As a guide, the following entries are already answered.
compound="COc1c2occc2cc2ccc(=O)oc12 [8-Methoxypsoralen]" value_reported="12.67 ± 4.61 (-156 ± 24) %"
compound="Clc1ccc(Nc2nnc(Cc3ccncc3)c3ccccc23)cc1 [Vatalanib]" value_reported="1.1 ± 0.95 (-157 ± 44) %"
compound="CCOP(=S)(OCC)Oc1ccc([N+](=O)[O-])cc1 [Parathion]" value_reported="0.17 ± 0.04 (-144 ± 4) %"

Q: Need CYP2C19 Efficacy (in parenthesis), item CN(C)CCCSc1ccccc1NC(=O)/C=C/c1ccccc1 [Cinanserin]
A: 29.59 ± 16.13 (-78 ± 38) %

Q: Would you mind doing CCOP(=S)(OCC)SCSc1ccc(Cl)cc1 [Carbophenothion] as well?
A: 0.47 ± 0.18 (-138 ± 5) %

Q: Would you mind doing CC1(C)CCC(=Cc2ccc(Cl)cc2)C1(O)Cn1cncn1 (stereo not drawn) [Triticonazole] as well?
A: 0.34 ± 0.15 (-129 ± 16) %

Q: Would you mind doing C=CC(=O)OCC(CO)(COC(=O)C=C)COC(=O)C=C [Pentaerythritol triacrylate] as well?
A: 22.64 ± 2.6 (-137 ± 14) %

Q: Would you mind doing Clc1ccc(C(c2ccccc2Cl)C(Cl)Cl)cc1 (stereo not drawn) [Mitotane] as well?
A: 0.82 ± 0.15 (-131 ± 13) %

Q: Would you mind doing FC(F)C(F)(F)OCC(Cn1cncn1)c1ccc(Cl)cc1Cl (stereo not drawn) [Tetraconazole] as well?
A: 0.02 ± 0.0 (-134 ± 5) %

Q: Would you mind doing O=S(=O)(Oc1ccc(Cl)cc1)c1ccc(Cl)cc1 [Chlorfenson] as well?
A: 0.14 ± 0.02 (-95 ± 43) %

Q: Would you mind doing Clc1ccc(COC(Cn2ccnc2)c2ccc(Cl)cc2Cl)cc1 (stereo not drawn) [Econazole nitrate] as well?
A: 0.15 ± 0.02 (-152 ± 3) %

Q: Would you mind doing OC(c1ccc(Cl)cc1)(c1ccc(Cl)cc1)C(Cl)(Cl)Cl [Dicofol] as well?
A: 0.29 ± 0.44 (-153 ± 1) %

Q: Would you mind doing COP(=S)(Oc1cc(Cl)c(Br)cc1Cl)c1ccccc1 (stereo not drawn) [Leptophos] as well?
A: 0.27 ± 0.05 (-122 ± 2) %

Q: Would you mind doing O=C(Nc1ccc(Cl)c(Cl)c1)C1CC1 [Cypromid] as well?
A: 12.07 ± 3.02 (-106 ± 21) %

Q: Would you mind doing CCOP(=S)(OCC)Oc1ccc(Cl)cc1Cl [Dichlofenthion] as well?
A: 0.44 ± 0.11 (-121 ± 28) %

Q: Would you mind doing CC(N/C(=N\C#N)Nc1ccncc1)C(C)(C)C (stereo not drawn) [Pinacidil monohydrate] as well?
A: 2.06 ± 0.47 (-116 ± 6) %

Q: Would you mind doing Clc1ccc(C(c2ccc(Cl)cc2)C(Cl)Cl)cc1 [p,p'-DDD] as well?
A: 0.12 ± 0.06 (-136 ± 7) %

Q: Would you mind doing N#Cc1c(Cl)c(Cl)c(Cl)c(C#N)c1Cl [Chlorothalonil] as well?
A: 38.42 ± 34.42 (-114 ± 10) %

Q: Would you mind doing O=S(=O)(c1ccc(Cl)cc1)c1cc(Cl)c(Cl)cc1Cl [Tetradifon] as well?
A: 0.27 ± 0.02 (-131 ± 10) %

Q: Would you mind doing CCOP(=S)(OCC)Oc1cc(Cl)c(Br)cc1Cl [Bromophos-ethyl] as well?
A: 0.71 ± 0.08 (-121 ± 12) %

Q: Would you mind doing COP(=S)(OC)Oc1ccc(S(=O)(=O)N(C)C)cc1 [Famphur] as well?
A: 0.09 ± 0.01 (-137 ± 1) %

----------
Molecular target: UniProt:P08684
Sequence (P08684 whole entry): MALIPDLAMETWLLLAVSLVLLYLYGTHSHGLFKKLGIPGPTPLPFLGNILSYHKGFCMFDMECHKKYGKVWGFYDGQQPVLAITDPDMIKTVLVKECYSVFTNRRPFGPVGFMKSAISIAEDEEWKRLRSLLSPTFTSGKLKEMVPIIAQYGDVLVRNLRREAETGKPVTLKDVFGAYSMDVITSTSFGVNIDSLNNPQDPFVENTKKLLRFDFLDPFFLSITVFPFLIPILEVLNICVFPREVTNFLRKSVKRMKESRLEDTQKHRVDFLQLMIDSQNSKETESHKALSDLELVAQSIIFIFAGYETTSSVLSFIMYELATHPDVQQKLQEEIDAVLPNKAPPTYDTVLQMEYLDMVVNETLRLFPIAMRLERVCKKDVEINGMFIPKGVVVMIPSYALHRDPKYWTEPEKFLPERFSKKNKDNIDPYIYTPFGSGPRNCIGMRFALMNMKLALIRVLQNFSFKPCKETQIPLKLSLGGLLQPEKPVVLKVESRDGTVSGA
Assay: biochemical
Conditions: CYP3A4 IC50 (half-maximal inhibitory concentration)
pIC50: −log10 of the molar value.
Is pIC50 at least 6? Then Satisfied. If not, Not satisfied.

compound="CCOP(=S)(OCC)SC(CCl)N1C(=O)c2ccccc2C1=O (centres unmarked) [Dialifor]" assigned_class="Not satisfied"
compound="CCN(CC)c1nc(C)cc(OP(=S)(OC)OC)n1 [Pirimiphos-methyl]" assigned_class="Not satisfied"
compound="C=CCOC(=O)C(C)(C)OC(=O)c1cc(-n2c(=O)cc(C(F)(F)F)n(C)c2=O)ccc1Cl [Butafenacil]" assigned_class=Satisfied

Q: State whether the measured pIC50 reaches 6, counting equality as reaching it, for CC1(C)CCC(Cc2ccc(Cl)cc2)C1(O)Cn1cncn1 (centres unmarked) [Metconazole]
A: Satisfied

----------
Molecular target: human CYP2D6 (Homo sapiens, UniProt P10635)
Sequence (P10635 whole entry): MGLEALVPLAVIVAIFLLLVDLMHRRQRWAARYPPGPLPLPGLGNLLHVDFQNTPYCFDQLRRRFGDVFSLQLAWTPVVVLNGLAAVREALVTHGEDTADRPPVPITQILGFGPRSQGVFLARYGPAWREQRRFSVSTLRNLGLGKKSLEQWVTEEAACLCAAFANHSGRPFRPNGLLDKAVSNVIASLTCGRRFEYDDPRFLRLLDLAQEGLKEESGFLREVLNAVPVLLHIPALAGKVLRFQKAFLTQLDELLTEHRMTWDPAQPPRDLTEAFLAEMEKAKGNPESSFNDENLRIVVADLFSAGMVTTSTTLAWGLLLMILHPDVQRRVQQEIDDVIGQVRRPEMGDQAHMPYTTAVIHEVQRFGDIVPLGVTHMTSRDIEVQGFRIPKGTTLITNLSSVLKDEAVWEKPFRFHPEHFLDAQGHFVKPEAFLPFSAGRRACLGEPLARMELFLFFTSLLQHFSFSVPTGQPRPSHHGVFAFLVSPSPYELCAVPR
Assay: biochemical
Details: CYP2D6 IC50
Counter-ions that a name gives are not always drawn.
Metric Name: log10(IC50) (log10 of the value in nM)
A value of 2 here means IC50 of 100 in nM, since values are log10.

As a guide, the following entries are already answered.
compound="CCCCN(CCCC)CC(O)c1cc(Cl)cc2c1-c1ccc(Cl)cc1/C2=C/c1ccc(Cl)cc1 (stereo not drawn) [Lumefantrine]" value_reported=2.84
compound="CCN(CC)C(=O)[C@@H]1C=C2c3cccc4[nH]cc(c34)C[C@H]2N(C)C1 [Lysergide]" value_reported=2.63
compound="CO[C@]12C[C@@H](COC(=O)c3cncc(Br)c3)CN(C)[C@@H]1Cc1cn(C)c3cccc2c13 [Nicergoline]" value_reported=1.85
compound="CCCCCCCCCCCCN [Dodecylamine hydrochloride]" value_reported=3.52
compound="CC1(C)C2(Cl)C(Cl)C(Cl)C(Cl)(C(Cl)Cl)C1(Cl)C2Cl (stereo not drawn) [Strobane]" value_reported=4.64

Q: Need log10(IC50), item COCC(=O)O[C@]1(CCN(C)CCCc2nc3ccccc3[nH]2)CCc2cc(F)ccc2[C@@H]1C(C)C [Mibefradil dihydrochloride]
A: 2.72

Q: Would you mind doing CC(C)Nc1ccc(Nc2ccccc2)cc1 [N-Isopropyl-N'-phenyl-p-phenylenediamine] as well?
A: 3.96

Q: Would you mind doing C=CCN1C[C@H](C(=O)N(CCCN(C)C)C(=O)NCC)C[C@@H]2c3cccc4[nH]cc(c34)C[C@H]21 [Cabergoline] as well?
A: 3.17

Q: Would you mind doing O=S1OCC2C(CO1)C1(Cl)C(Cl)=C(Cl)C2(Cl)C1(Cl)Cl (stereo not drawn) [Endosulfan] as well?
A: 4.26

----------
Biological target: human CYP2D6 (Homo sapiens, UniProt P10635)
Metric Name: CYP2D6 AC50 (half-maximal activity concentration)

compound="O=C(OCCCCCOC(=O)c1ccccc1)c1ccccc1 [Pentane-1,5-diyl dibenzoate]" value_reported=Inactive
compound="CC(C)(C)c1ccc(OP(=O)(Oc2ccccc2)Oc2ccccc2)cc1 [tert-Butylphenyl diphenyl phosphate]" value_reported=Inactive
compound=O=C(CCOCCOCCOCCOCCC(=O)Nc1c(I)cc(I)c(C(=O)O)c1I)Nc1c(I)cc(I)c(C(=O)O)c1I value_reported=Inactive

----------
CYP2D6 AC50 (half-maximal activity concentration) tested on human CYP2D6 (Homo sapiens): recorded values

As a guide, the following entries are already answered.
compound="Nc1c(Cl)cc([N+](=O)[O-])cc1Cl [Dicloran]" value_reported=Inactive
compound="CCNc1nc(NC(C)(C)C)nc(SC)n1 [Terbutryn]" value_reported=Inactive
compound="C[Si](Cl)(c1ccccc1)c1ccccc1 [Chloro(methyl)diphenylsilane]" value_reported="Inconclusive inhibitor"
compound="O=C(O)C(F)(F)C(F)(F)C(F)(F)C(F)(F)C(F)(F)C(F)(F)C(F)(F)F [PFOA]" value_reported=Inactive
compound="ClC(c1ccccc1)(c1ccccc1)c1ccccc1 [Trityl chloride]" value_reported="Inconclusive inhibitor"

Q: Need CYP2D6 AC50 (half-maximal activity concentration), item COc1ccccc1OC(=O)Oc1ccccc1OC [Guaiacol carbonate]
A: Inactive

Q: Would you mind doing O=CC(Br)(Br)Br [Tribromoacetaldehyde] as well?
A: Inconclusive inhibitor

Q: Would you mind doing CC(c1ccc(O)cc1)c1ccc(O)cc1 [Bisphenol E] as well?
A: Inactive
